Species: Homo sapiens
Assay: Compound was tested for the inhibition of LTB4 production in human whole blood (HWB)
Format: functional
Settings: Homo sapiens, Blood
pIC50: −log10 of the molar value.
MEASURED_METRIC: pIC50

COMPOUND	pIC50
OC1(c2cccc(COc3ccc4c(-c5ccoc5)cc(Cc5nccs5)cc4c3)c2)CCOCC1	6.18

A: O=C1OCc2c1cc1cc(OCc3cccc(C4(O)CC5CCC(C4)O5)c3)ccc1c2-c1ccccc1 (centres undefined)
B: CC(=O)c1cc(-c2ccccc2)c2ccc(OCc3cccc(C4(O)CCOCC4)c3)cc2c1
C: COc1cccc(-c2c3c(cc4cc(OCc5cccc(C6(O)CCOCC6)c5)ccc24)C(=O)OC3)c1
D: N#Cc1cc(-c2ccoc2)c2ccc(OCc3cccc(C4(O)CCOCC4)c3)cc2c1
Order each entry by recorded pIC50, climbing from the minimum. Form field (ranking): labels in requested order.
A, C, B, D
(A: 6.00, C: 6.59, B: 7.05, D: 8.00)

---

Target: UniProt:P09917
Sequence (P09917 whole entry): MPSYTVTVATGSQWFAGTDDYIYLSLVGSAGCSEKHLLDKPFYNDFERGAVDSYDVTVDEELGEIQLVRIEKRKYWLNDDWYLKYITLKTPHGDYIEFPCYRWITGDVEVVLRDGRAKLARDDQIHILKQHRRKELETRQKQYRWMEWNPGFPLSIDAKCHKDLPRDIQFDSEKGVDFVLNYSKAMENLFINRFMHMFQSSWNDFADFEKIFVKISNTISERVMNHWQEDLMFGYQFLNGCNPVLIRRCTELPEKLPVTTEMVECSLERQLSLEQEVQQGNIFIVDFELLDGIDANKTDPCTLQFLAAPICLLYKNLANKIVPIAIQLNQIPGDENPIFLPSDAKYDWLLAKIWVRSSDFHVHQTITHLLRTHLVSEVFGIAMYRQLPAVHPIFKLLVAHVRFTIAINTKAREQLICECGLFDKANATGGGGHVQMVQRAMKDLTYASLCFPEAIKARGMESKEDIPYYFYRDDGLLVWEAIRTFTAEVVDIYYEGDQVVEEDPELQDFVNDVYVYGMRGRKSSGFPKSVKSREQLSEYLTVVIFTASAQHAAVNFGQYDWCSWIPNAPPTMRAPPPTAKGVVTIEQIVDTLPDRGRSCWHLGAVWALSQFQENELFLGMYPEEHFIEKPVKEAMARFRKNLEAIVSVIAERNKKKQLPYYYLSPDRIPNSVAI
Assay: Potency to inhibit oxidation of arachidonic acid by recombinant human 5-lipoxygenase
MEASURED_METRIC: IC50 (nM)

COMPOUND	IC50 (nM)
O=C1OCc2c1cc1cc(OCc3cccc(C4(O)CC5COC(C4)O5)c3)ccc1c2-c1ccoc1 (stereo in doubt; 3v)	340
O=C1OCc2c1cc1cc(OCc3cccc(C4(O)CCOCC4)c3)ccc1c2-c1ccsc1	27

I: Cn1nnc(-c2cc(-c3ccccc3)c3ccc(OCc4cccc(C5(O)CCOCC5)c4)cc3c2)n1
II: O=C1OCc2c1cc1cc(OCc3cccc(C4(O)CCOCC4)c3)ccc1c2-c1ccccc1F
For the two items I and II , which reports the higher IC50 value? Write down the label of the entry you select.
II

I: O=C1OCc2c1cc1cc(OCc3cccc(C4(O)CCOCC4)c3)ccc1c2-c1cccnc1
II: O=C1OCc2c1cc1cc(OCc3cccc(C4(O)CC5CCC(C4)O5)c3)ccc1c2-c1ccccc1 (stereo unspecified)
Field: lower recorded IC50 (choose I or II ) Write down the label of the entry you select.
II

a: O=C1OCc2c1cc1cc(OCc3cccc(C4(O)CCOCC4)c3)ccc1c2-c1ccco1
b: CC1(C)COC(c2cc(-c3ccoc3)c3ccc(OCc4cccc(C5(O)CCOCC5)c4)cc3c2)=N1
Field: lower recorded IC50 (choose a or b ) Write down the label of the entry you select.
b

I: O=C1CC(O)(c2cccc(COc3ccc4c(-c5ccccc5)c5c(cc4c3)C(=O)OC5)c2)CCO1 (stereo unspecified)
II: CC1CC(O)(c2cccc(COc3ccc4c(-c5ccccc5)c5c(cc4c3)C(=O)OC5)c2)CC(C)O1 (stereo unspecified)
For the two items I and II , which reports the higher IC50 value? Write down the label of the entry you select.
I

---

Species: Homo sapiens
Assay: Compound was tested for the inhibition of LTB4 production in human whole blood (HWB)
Format: functional
Conditions: Homo sapiens, Blood
MEASURED_METRIC: IC50 (nM)

Some compounds with recorded IC50:
COMPOUND	UNIT_SPEC	IC50
O=C1OCc2c1cc1cc(OCc3cccc(C4(O)CCOCC4)c3)ccc1c2-c1ccco1	nM	450
O=C1OCc2c1cc1cc(OCc3cccc(C4(O)CCOCC4)c3)ccc1c2-c1ccccc1F	nM	1800
OC1(c2cccc(COc3ccc4c(-c5ccoc5)cc(C5=NCCO5)cc4c3)c2)CCOCC1	nM	50
COC1CC(O)(c2cccc(COc3ccc4c(-c5ccccc5)c5c(cc4c3)C(=O)OC5)c2)CCO1 (centres undefined)	nM	120
CC(O)c1cc(-c2ccccc2)c2ccc(OCc3cccc(C4(O)CCOCC4)c3)cc2c1 (centres undefined)	nM	675
CC1CC(O)(c2cccc(COc3ccc4c(-c5ccccc5)c5c(cc4c3)C(=O)OC5)c2)CC(C)O1 (centres undefined)	nM	900
O=C1OCc2c1cc1cc(OCc3cccc(C4(O)CCOCC4)c3)ccc1c2-c1ccc(F)cc1	nM	410
O=C1OCc2c1cc1cc(OCc3cccc(C4(O)CCOCC4)c3)ccc1c2-c1ccccc1	nM	140

A: O=C(c1cc(-c2ccoc2)c2ccc(OCc3cccc(C4(O)CCOCC4)c3)cc2c1)c1nccs1
B: CC(c1cc2ccccc2s1)N(O)C(N)=O (centres undefined)
C: Cn1nnc(-c2cc(-c3ccccc3)c3ccc(OCc4cccc(C5(O)CCOCC5)c4)cc3c2)n1
D: COCc1cc(-c2ccccc2)c2ccc(OCc3cccc(C4(O)CCOCC4)c3)cc2c1
# sort list by recorded IC50, greatest to least Form field (ranking): labels in requested order.
B, C, D, A

a: N#Cc1cc(-c2ccoc2)c2ccc(OCc3cccc(C4(O)CC5COC(C4)O5)c3)cc2c1 (centres undefined)
b: O=C(c1cccnc1)c1cc(-c2ccoc2)c2ccc(OCc3cccc(C4(O)CCOCC4)c3)cc2c1
Field: lower recorded IC50 (choose a or b ) Write down the label of the entry you select.
a
